The reported numbers originate from PubChem BioAssay AID1259407.

- System: CCRIS mutagenicity, Ames/micronucleus/aberration tests
- assayRemarks: CCRIS mutagenicity studies
- conditionDetails: Test System: AMES SALMONELLA TYPHIMURIUM; Strain/Indicator: TA98; Metabolic Activation: RAT, LIVER, S-9, PHENOBARBITAL AND BETA-NAPHTHOFLAVONE; Method: PREINCUBATION
Activity calls are given as the source filed them. How the calls were made is not given here.
API: response.call in 1.0 = active, 0.0 = inactive

Called result for CN1CCc2cc3c(c4c2[C@H]1Cc1ccccc1-4)OCO3
1.0

Called result for NCc1cccc(CN)c1
0.0

Called result for CCC(C)=O
0.0

Called result for CC(=O)CC(=O)Nc1ccc(C)cc1
0.0

Called result for CN1C[C@@H](O)c2cc3c(c4c2[C@H]1Cc1ccccc1-4)OCO3
1.0

Called result for CCCCCCCCCCO
0.0

====

- System: CCRIS mutagenicity, Ames/micronucleus/aberration tests
- assayRemarks: CCRIS mutagenicity studies
- conditionDetails: Test System: AMES SALMONELLA TYPHIMURIUM; Strain/Indicator: TA98; Metabolic Activation: NONE; Method: PREINCUBATION
Activity calls are given as the source filed them. How the calls were made is not given here.
API: response.call in 1 = active, 0 = inactive

Called result for COC(F)(F)C(Cl)Cl
0

Called result for O=C1OC(=O)c2cc([N+](=O)[O-])ccc21
1

Called result for Clc1ccc2ccccc2c1
0

Called result for N#CCCC#N
0

Called result for Cc1c(N)nc(C(CC(N)=O)NCC(N)C(N)=O)nc1C(=O)NC(C(=O)NC(C)C(O)C(C)C(=O)NC(C(=O)NCCc1nc(-c2nc(C(=O)NCCC[S+](C)C)cs2)cs1)C(C)O)C(O[C@@H]1O[C@@H](CO)[C@@H](O)[C@H](O)[C@@H]1O[C@H]1O[C@H](CO)[C@@H](O)[C@H](OC(N)=O)[C@@H]1O)c1cnc[nH]1 (stereo partly drawn)
0

Called result for COc1ccc2c(CBr)cc(=O)oc2c1
0

Called result for OCC1CO1 (stereo not drawn)
1

Called result for CC(=O)N[C@@H]1[C@@H](O[C@@H]2O[C@H](C(=O)O)[C@@H](O[C@@H]3O[C@H](CO)[C@@H](O)[C@H](O[C@@H]4O[C@H](C(=O)O)[C@@H](O)[C@H](O)[C@H]4O)[C@H]3NC(C)=O)[C@H](O)[C@H]2O)[C@H](O)[C@@H](CO)O[C@H]1O
0

====

- Test system: CCRIS mutagenicity, Ames/micronucleus/aberration tests
- assayRemarks: CCRIS mutagenicity studies
- conditionDetails: Test System: CHINESE HAMSTER V-79; Strain/Indicator: V-79/OUABAIN; Metabolic Activation: NONE
Activity calls are given as the source filed them. The rule behind the calls is not given here.
API: response.call in active, inactive

Called result for O=CC(Cl)Cl
inactive

Called result for C1CCC(C(CC2CCCCN2)C2CCCCC2)CC1 (stereo not drawn)
inactive

Called result for CC(C)CCC[C@@H](C)[C@H]1CC[C@H]2[C@@H]3C[C@@H]4O[C@@]45C[C@@H](O)CC[C@]5(C)[C@H]3CC[C@]12C
inactive

Called result for CCN(CO)N=O
active

Called result for O=c1[nH]c(=O)n([C@H]2C[C@H](O)[C@@H](CO)O2)cc1CO
inactive

Called result for C[Si](C)(C)CN(N=O)C(N)=O
active

Called result for CN(C)CCCN1c2ccccc2Sc2ccc(Cl)cc21
inactive

Called result for CCOC(=O)C(C)(C)Oc1ccc(Cl)cc1
inactive

====

- Tested on: CCRIS mutagenicity, Ames/micronucleus/aberration tests
- assayRemarks: CCRIS mutagenicity studies
- conditionDetails: Test System: AMES SALMONELLA TYPHIMURIUM; Strain/Indicator: TA98; Metabolic Activation: RAT, LIVER, S-9, PHENOBARBITAL; Method: PREINCUBATION
Activity calls are given as the source filed them. No rule for the calls is given here.
valueKind: mutagenic call

structureString: O=S(=O)(O)c1ccc(N=Nc2c(O)ccc3cc(S(=O)(=O)O)ccc23)cc1
testedTarget: CCRIS mutagenicity, Ames/micronucleus/aberration tests
experimentalResult: inactive; negative
//
structureString: O=S(=O)(O)c1ccc2c(N=Nc3ccccc3)c(O)ccc2c1
testedTarget: CCRIS mutagenicity, Ames/micronucleus/aberration tests
experimentalResult: inactive; negative
//
structureString: O=C1C=CC(=O)C=C1
testedTarget: CCRIS mutagenicity, Ames/micronucleus/aberration tests
experimentalResult: active; positive
//
structureString: Cc1nn(C)c(N)c1C(=O)c1ccccc1F
testedTarget: CCRIS mutagenicity, Ames/micronucleus/aberration tests
experimentalResult: active; positive
//
structureString: Oc1cccc(O)c1O
testedTarget: CCRIS mutagenicity, Ames/micronucleus/aberration tests
experimentalResult: active; positive
//
structureString: O=S(=O)(O)c1ccc2cc(Oc3ccc4cc(S(=O)(=O)O)ccc4c3)ccc2c1
testedTarget: CCRIS mutagenicity, Ames/micronucleus/aberration tests
experimentalResult: inactive; negative

Lab note: next molecule to report on.
Look up mutagenic call of O=S(=O)(O)c1ccc2cc(O)ccc2c1 and report it.
inactive; negative

====

- Tested on: CCRIS mutagenicity, Ames/micronucleus/aberration tests
- assayRemarks: CCRIS mutagenicity studies
- conditionDetails: Test System: AMES SALMONELLA TYPHIMURIUM; Strain/Indicator: TA1538; Metabolic Activation: RAT, LIVER, S-9, AROCLOR 1254 (10%); Method: STANDARD PLATE
- Text: The CCRIS database contains chemical records with carcinogenicity, mutagenicity, tumor promotion, and tumor inhibition test results. It was developed by the National Cancer Institute (NCI). Data are derived from studies cited in primary journals, current awareness tools, NCI reports, and other sources. Test results have been reviewed by experts in carcinogenesis and mutagenesis. CCRIS provides historical information from the years 1985 - 2011. It is no longer updated. […]
Activity calls are given as the source filed them. The rule behind the calls is not given here.
API: response.call in active, inactive

Called result for C[C@]12C=CC(=O)C=C1CC[C@@H]1[C@@H]2C(=O)C[C@@]2(C)[C@H]1CC[C@]2(O)C(=O)CO
inactive

Called result for CCN(CC)c1ccc(C(=C2C=CC(=[N+](CC)CC)C=C2)c2ccc(N(CC)CC)cc2)cc1
inactive

Called result for Oc1ccccc1-c1ccccc1
inactive

Called result for CCCCC(CC)COC(=O)c1ccc(N(C)C)c([N+](=O)[O-])c1 (stereo unspecified)
active

Called result for CC(C)CCC[C@@H](C)[C@H]1CC[C@H]2[C@@H]3C[C@@H]4O[C@@]45C[C@@H](O)CC[C@]5(C)[C@H]3CC[C@]12C
active

Called result for C[CH2][Ge]([Cl])([CH2]C)[CH2]C
inactive

====

- System: CCRIS mutagenicity, Ames/micronucleus/aberration tests
- assayRemarks: CCRIS mutagenicity studies
- conditionDetails: Test System: E.COLI; Strain/Indicator: WP2UVRA; Metabolic Activation: RAT LIVER S-9, PHENOBARBITAL AND BETA-NAPHTHOFLAVONE; Method: PREINCUBATION
Active and inactive are the calls of the source. The rule behind the calls is not given here.
API: response.call in 1 (active), 0 (inactive)

Called result for O=[N+]([O-])c1cccc2cccc([N+](=O)[O-])c12
1

Called result for NNc1ccccc1
1

Called result for Nc1ccc(S(=O)(=O)O)c2ccccc12
0

Called result for c1ccc2ncccc2c1
1

Called result for O=Cc1ccc(O)cc1
0

====

- Tested on: CCRIS mutagenicity, Ames/micronucleus/aberration tests
- assayRemarks: CCRIS mutagenicity studies
- conditionDetails: Test System: AMES SALMONELLA TYPHIMURIUM; Strain/Indicator: TA100; Metabolic Activation: RAT, LIVER, S-9, AROCLOR 1254 (30%); Method: PREINCUBATION
The source made the active and inactive calls. No rule for the calls is given here.
API: response.call in active, inactive

Called result for O=C/C=C/c1ccco1
inactive

Called result for Cc1ccc(S(=O)(=O)NC2CCCCC2)cc1
inactive

Called result for COc1cc([N+](=O)[O-])ccc1N=NC(C(C)=O)C(=O)Nc1ccccc1OC (stereo unspecified)
inactive

Called result for ClCC(Cl)Cl
inactive

Called result for Cc1ccc(Br)cc1
inactive

Called result for c1ccc(Nc2ccccc2)cc1
inactive

Called result for CCCCCCCC(=O)Cl
inactive

Called result for CCC(C)C(C)CO (stereo unspecified)
inactive

Called result for O=C1c2ccccc2C(=O)C1(O)O
inactive

Called result for Cc1cc(O)ccc1Cl
inactive

Called result for COC(=O)c1ccc(C)cc1
inactive

Called result for c1ccc2cc(Nc3ccc(Nc4ccc5ccccc5c4)cc3)ccc2c1
inactive

Called result for Oc1c(I)cc(Cl)c2cccnc12
inactive

Called result for Cc1ccc(C)o1
inactive

Called result for c1cc2c3c(c1)ccc1cccc(c13)C2
active

Called result for CCN(CC)CCNc1ccc(CO)c2sc3ccccc3c(=O)c12
active

====

- Tested on: CCRIS mutagenicity, Ames/micronucleus/aberration tests
- assayRemarks: CCRIS mutagenicity studies
- conditionDetails: Test System: E. COLI; Strain/Indicator: WP2UVRA/PKM101; Metabolic Activation: NONE; Method: PREINCUBATION
Calls of active or inactive are those of the source. The rule behind the calls is not given here.
API: response.call in t (active), f (inactive)

Called result for CCCCCCCCCCO
f

Called result for CCC(C)=O
f

Called result for Cc1cccc(O)c1
f

Called result for NCc1cccc(CN)c1
f

Called result for CN(C)c1ccccc1
f

Called result for CC(C)(C)CC(C)(C)c1ccc(O)cc1
f

Called result for O=C(O)c1cc2ccccc2cc1O
f

Called result for CC(=O)CC(=O)Nc1ccc(C)cc1
t
